Each recorded value in this set is attributed to patent US10654866B2.

# target under test: Y537N mutant ERα receptor (Homo sapiens, UniProt P03372, Y537N)
# measurement notes: PRα inhibition (ERα functional antagonism) cell assay in MCF7-ESR1 Y537N 682 CRISPR cells
# Format: cell-based
# test context: MCF7 Y537N 682 CRISPR cells, 72 hours, % PR positive cells; read-out: Relative IC50
value kind: IC50 (nM)

Some solved entries appear below for comparison.
Recorded result, Oc1ccc2c3c(cnc2c1)-c1cccc(Cl)c1OC3c1ccc(OCCN2CC(CF)C2)cc1 (racemic) [Example 4] , IC50: 38.5

IC50 in this record for Cc1cccc2c1OC(c1ccc(OCCN3CC(CF)C3)cc1)c1c-2cnc2cc(O)ccc12 (single isomer, unassigned) [Example 8A] : 434

Data point: Cc1ccc2c(c1)OC(c1ccc(OCCN3CC(CF)C3)cc1)c1c-2cnc2cc(O)ccc12 (racemic) ; IC50 = 127

(a) Oc1ccc2c3c(cnc2c1)-c1cccc(C(F)(F)F)c1OC3c1ccc(OCCN2CC(CF)C2)cc1 (racemic) [Example 2]
(b) Oc1ccc2c3c(cnc2c1)-c1cccc(F)c1OC3c1ccc(OCCN2CC(CF)C2)cc1 (single isomer, unassigned) [Example 6A]
Out of a and b , name the one with the higher IC50. // return label of chosen record
b

(P) Cc1cccc2c1OC(c1ccc(OCCN3CC(CF)C3)cc1)c1c-2cnc2cc(O)ccc12 (racemic) [Example 8]
(Q) Oc1ccc2c3c(cnc2c1)-c1cccc(Cl)c1OC3c1ccc(OCCN2CC(CF)C2)cc1 (single isomer, unassigned) [Example 4B]
Higher IC50: P or Q ? Respond using the label that marks the chosen record.
P

----------
# target under test: ERα (Homo sapiens (Human), UniProt P03372)
# Sequence (P03372 whole entry): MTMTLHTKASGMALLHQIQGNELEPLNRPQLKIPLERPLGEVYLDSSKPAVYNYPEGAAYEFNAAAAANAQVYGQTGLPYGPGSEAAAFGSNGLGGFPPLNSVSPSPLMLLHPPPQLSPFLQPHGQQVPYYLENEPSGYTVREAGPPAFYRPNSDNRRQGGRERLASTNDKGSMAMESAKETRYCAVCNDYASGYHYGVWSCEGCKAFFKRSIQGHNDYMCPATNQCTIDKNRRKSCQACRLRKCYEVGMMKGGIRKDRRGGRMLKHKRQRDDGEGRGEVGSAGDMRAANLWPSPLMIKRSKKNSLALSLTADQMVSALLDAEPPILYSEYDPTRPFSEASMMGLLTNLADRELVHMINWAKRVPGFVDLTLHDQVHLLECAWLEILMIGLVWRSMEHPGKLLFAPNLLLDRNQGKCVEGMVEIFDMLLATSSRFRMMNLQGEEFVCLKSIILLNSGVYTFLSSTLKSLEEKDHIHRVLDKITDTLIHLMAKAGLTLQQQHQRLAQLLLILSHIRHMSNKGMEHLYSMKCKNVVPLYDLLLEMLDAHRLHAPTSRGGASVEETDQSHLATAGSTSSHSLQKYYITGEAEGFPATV
# measurement notes: ERα degradation assay in MCF7 cells
# Format: cell-based
# test context: 24 hours, % ER positive cells, read-out: Relative IC50
# Procedure: The purpose of the following ERα degradation assay is to measure the degradation of ERα by a test compound in an ERα positive breast cancer cell line such as MCF7. Culture MCF7 (purchased from ATCC HTB-22) cells in DMEM media supplemented with 10% FBS, 0.01 mg/mL human insulin 1 and 1% penicillin/streptomycin antibiotics and plate in 384-well flat-bottom plates at a density of 4,000 cells per well in phenol red free DMEM media (20 μL) containing 10% charcoal stripped FBS. […]
value kind: DC50 (nM)

(A) Oc1ccc2c3c(cnc2c1)-c1cccc(F)c1OC3c1ccc(OCCN2CC(CF)C2)cc1 (single isomer, unassigned) [Example 6A]
(B) Oc1ccc2c3c(cnc2c1)-c1ccc(F)cc1OC3c1ccc(OCCN2CC(CF)C2)cc1 (single isomer, unassigned) [Example 5B]
Between these two entries, A and B , state which has the higher DC50. Respond with the label that goes with your answer.
A
(A: 175 nM, B: 9.49 nM)

----------
# target under test: Y537N mutant ERα receptor (Homo sapiens, UniProt P03372, Y537N)
# measurement notes: PRα inhibition (ERα functional antagonism) cell assay in MCF7-ESR1 Y537N 682 CRISPR cells
# test context: MCF7 Y537N 682 CRISPR cells, 72 hours, % PR positive cells; read-out: Relative IC50
pIC50: −log10 of the molar value.
value kind: pIC50

Sure, the documented pIC50 for Cc1cccc2c1OC(c1ccc(OCCN3CC(CF)C3)cc1)c1c-2cnc2cc(O)ccc12 (single isomer, unassigned) [Example 8B] is 8.05

Summary for this compound, Oc1ccc2c3c(cnc2c1)-c1ccc(Cl)cc1OC3c1ccc(OCCN2CC(CF)C2)cc1 (single isomer, unassigned) [Example 3A] : pIC50 is 6.21

Per the records, this compound ( Oc1ccc2c3c(cnc2c1)-c1ccc(F)cc1OC3c1ccc(OCCN2CC(CF)C2)cc1 (racemic) [Example 5] ) has pIC50 equal to 7.18

Form: compound = Oc1ccc2c3c(cnc2c1)-c1ccc(F)cc1OC3c1ccc(OCCN2CC(CF)C2)cc1 (single isomer, unassigned) [Example 5B] ; pIC50 = 7.74

GET /value?item= Oc1ccc2c3c(cnc2c1)-c1ccc(Cl)cc1OC3c1ccc(OCCN2CC(CF)C2)cc1 (racemic) [Example 3] &field=pIC50 returns 7.11

Lab note: measured pIC50 of Oc1ccc2c3c(cnc2c1)-c1ccc(F)cc1OC3c1ccc(OCCN2CC(CF)C2)cc1 (single isomer, unassigned) [Example 5A] was 6.40

(a) Oc1ccc2c3c(cnc2c1)-c1cccc(C(F)(F)F)c1OC3c1ccc(OCCN2CC(CF)C2)cc1 (single isomer, unassigned) [Example 2A]
(b) Oc1ccc2c3c(cnc2c1)-c1cccc(F)c1OC3c1ccc(OCCN2CC(CF)C2)cc1 (racemic) [Example 6]
Parameter metric = pIC50. Return the lower-valued option from a and b . Record your answer as the label of the chosen record.
b
(b: 7.20, a: 7.60)

----------
// reported Ki per item
# target under test: ERα (wild type) (Homo sapiens (Human), UniProt P03372)
# measurement notes: ERα (wild type) competition binding assay
# test context: 3H-estradiol competition; Ki from IC50 by Cheng-Prusoff
# Experimental: Add the test compound at 10 different concentrations ranging from 10,000 nM to 0.5 nM, and determine nonspecific binding in the presence of 1 μM of 1713 estradiol. Incubate the binding reaction (140 μL) for 4 hours at room temperature, and then add cold dextran-charcoal buffer (70 μL) (containing per 50 mL of assay buffer, 0.75 g of charcoal and 0.25 g of dextran) to each reaction. […] After an incubation of 2.5 hours, read the plates in a Wallac Microbeta counter. […]
Numeric only. Scale: nM

Worked set:
Memo: Cc1cccc2c1OC(c1ccc(OCCN3CC(CF)C3)cc1)c1c-2cnc2cc(O)ccc12 (single isomer, unassigned) [Example 8B] , reported Ki: 0.94

For this molecule ( Oc1ccc2c3c(cnc2c1)-c1ccc(Cl)cc1OC3c1ccc(OCCN2CC(CF)C2)cc1 (racemic) [Example 3] ), measured Ki is 2.36

Next:
// field: Ki; key: Oc1ccc2c3c(cnc2c1)-c1ccc(Cl)cc1OC3c1ccc(OCCN2CC(CF)C2)cc1 (single isomer, unassigned) [Example 3B] ; value = 0.59

----------
# target under test: Y537N mutant ERα receptor (Homo sapiens, UniProt P03372, Y537N)
# measurement notes: PRα inhibition (ERα functional antagonism) cell assay in MCF7-ESR1 Y537N 682 CRISPR cells
# test context: MCF7 Y537N 682 CRISPR cells, 72 hours, % PR positive cells; read-out: Relative IC50
pIC50: −log10 of the molar value.
value kind: pIC50

(1) Oc1ccc2c3c(cnc2c1)-c1cccc(F)c1OC3c1ccc(OCCN2CC(CF)C2)cc1 (single isomer, unassigned) [Example 6B]
(2) Oc1ccc2c3c(cnc2c1)-c1cccc(C(F)(F)F)c1OC3c1ccc(OCCN2CC(CF)C2)cc1 (single isomer, unassigned) [Example 2B]
(3) Oc1ccc2c3c(cnc2c1)-c1cccc(Cl)c1OC3c1ccc(OCCN2CC(CF)C2)cc1 (single isomer, unassigned) [Example 4A]
Please rank the 3 items above; order by pIC50, the highest number leading. Show the ranking through the labels, in the order asked for.
1, 3, 2
